subject_of_test: MTMR1 (Homo sapiens)
procedure_text: TPP-CCR in living HL-60 cells
property_label: EC50 (nM)
Dear colleague, please return just the value in nM, with no unit written.

QUERY: For the compound Cn1c(NC[C@@H](N)Cc2ccccc2)nc(-c2ccncc2)c(-c2ccc3ccccc3c2)c1=O , what EC50 is on record?
RESULT: 105

====

subject_of_test: VAPA (Homo sapiens)
Construct: dose–responses (mean over replicates), derived from TPP-CCR experiments in living cells; endogenous in cells
Sequence (Q9P0L0 1-249): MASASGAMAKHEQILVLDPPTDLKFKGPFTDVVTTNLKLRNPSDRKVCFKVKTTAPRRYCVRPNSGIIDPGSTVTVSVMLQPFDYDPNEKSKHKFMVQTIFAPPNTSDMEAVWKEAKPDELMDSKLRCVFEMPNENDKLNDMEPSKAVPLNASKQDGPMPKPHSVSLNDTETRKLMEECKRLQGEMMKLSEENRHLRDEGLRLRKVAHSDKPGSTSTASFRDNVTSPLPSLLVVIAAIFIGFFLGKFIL
procedure_text: TPP-CCR in living HL-60 cells
recorded_conditions: living HL-60 cells, […] °C, TMT-MS
property_label: EC50

QUERY: For the molecule Cc1cnc(Nc2ccc(F)cc2Cl)nc1-c1c[nH]c(C(=O)N[C@H](CO)c2cccc(Cl)c2)c1 [ERK 11e] , what EC50 is on record?
RESULT: 1550 nM
